# experimental_protocol: Measurement of pyrolysis temperature by differential scanning calorimeter
# Format: physicochemical
# setup_conditions: endothermic substance; DSC, heating rate 10°C/min, temperature at maximum heat flow
# Description: The endothermic substance may have a pyrolysis temperature of 50°C or more. The pyrolysis temperature of the endothermic substance may be 300°C or less. The pyrolysis temperature may also be referred to as a temperature at which the endothermic substance undergoes an endothermic reaction (endothermic reaction temperature). […] The pyrolysis temperature may be a value measured while increasing the temperature at a rate of 10°C/min using a differential scanning calorimeter (DSC Q2000, TA Corporation). […]
experimental_readout: Pyrolysis temperature (°C)
Quick reminder: number only, in °C, skip the unit.

Worked cases, Pyrolysis temperature given:
O.O.O.O.O.O.O.O.O.O.O.O.O=S(=O)([O-])[O-].O=S(=O)([O-])[O-].[Al+3].[K+] [KAl(SO4)2·12H2O]
90
[Cl-].[K+]
770
[O]=[Mg]
2800
[Mg+2].[OH-].[OH-]
330
O.O.O.O.O.O.O.O.O.O.O.O.O.O.O.O.O.O.O=S(=O)([O-])[O-].O=S(=O)([O-])[O-].O=S(=O)([O-])[O-].[Al+3].[Al+3] [Al2(SO4)3·18H2O]
102
[O]=[Al][O][Al]=[O]
2000

-- ask // query Pyrolysis temperature value for entry [Cl-].[Cl-].[Mg+2]
-- reply 714

-- ask // query Pyrolysis temperature value for entry O.O.O.O.O.O.[Cl-].[Cl-].[Mg+2]
-- reply 107

-- ask // query Pyrolysis temperature value for entry OB(O)O
-- reply 136

-- ask // query Pyrolysis temperature value for entry [OH][Al]([OH])[OH]
-- reply 297

-- ask // query Pyrolysis temperature value for entry [Cl-].[Na+]
-- reply 801

All figures here come from patent EP4745196A1.
